The reported measurements were obtained from BindingDB's records for doi:10.1021/jm00108a008.

- Test description: Binding affinity against Opioid receptor delta 1 was measured in the guinea pig brain membranes using [3H]DADLE in the presence of 1 uM unlabeled DAMGO as radioligand
Attribute measured: pKi
Answers are plain numbers, as −log10 of the molar value.

Which measured pKi value corresponds to Oc1ccc2c3c1O[C@H]1C4=C(C[C@@]5(O)C(C2)N(CC2CC2)CC[C@]315)C(c1ccccc1)C1=C(O4)[C@@H]2Oc3c(O)ccc4c3[C@@]23CCN(CC2CC2)C(C4)[C@]3(O)C1 (stereo partly specified) ? 8.00

* * *

- Test description: Binding affinity against Opioid receptor delta 1 was measured in the guinea pig brain membranes using [3H]DADLE in the presence of 1 uM unlabeled DAMGO as radioligand
Attribute measured: Ki (nM)
Numbers only, in nM.

Looking for the measured Ki of "Oc1ccc2c3c1O[C@H]1c4sc5c(c4C[C@@]4(O)C(C2)N(CC2CC2)CC[C@]314)C[C@@]1(O)C2Cc3ccc(O)c4c3[C@@]1(CCN2CC1CC1)[C@H]5O4" , can you help? 77
